IC50 values by entry
Test system: A549
test: A549 assay: screening of cancer cell growth inhibiting compound
Type: cell-based
condition: Homo sapiens, 72 h; A549 cells, three days, WST-8; read-out: A549 IC50
readoutName: IC50

O=C(NC1CC1)c1ccc(-c2cnc3c(NCC4CCOCC4)cc(N[C@H]4CC[C@H](O)CC4)nn23)cc1 [Example 2-43]: 500 to 1000 nM
CCC(CC)CNc1cc(NC2CCCCC2)nn2c(-c3ccc(C(=O)NC4CC4)cc3)cnc12 [Example 2-133]: 50 to 500 nM
CC(C)CNc1nc(-c2cccc(CN3CCOCC3)c2)cn2c(-c3ccc(C(=O)NC4CC4)cc3)cnc12 [Example 1-127]: 1000 to 10000 nM
O=C(NC1CC1)c1ccc(-c2cnc3c(NCC4CCOCC4)cc(Oc4cccc(F)c4O)nn23)cc1 [Example 2-117]: ≤ 50 nM
COc1cccc(Oc2cc(NCC3CCOCC3)c3ncc(-c4ccc(C(=O)NC5CC5)cc4)n3n2)c1 [Example 2-109]: 50 to 500 nM
Cc1cccc(C)c1Oc1cc(NCC2CCOCC2)c2ncc(-c3ccc(C(=O)NC4CC4)cc3)n2n1 [Example 2-107]: 50 to 500 nM
O=C(NC1CC1)c1ccc(-c2cnc3c(NCC4CCOCC4)cc(Oc4cccc(C(F)(F)F)c4)nn23)cc1 [Example 2-111]: 50 to 500 nM
CCC(C)CNc1cc(NCC2CCOCC2)c2ncc(-c3ccc(C(=O)NC4CC4)cc3)n2n1 (stereo not drawn) [Example 2-59]: 50 to 500 nM
O=C(NC1CC1)c1ccc(-c2cnc3c(NCc4nccs4)cc(NC4CCCCC4)nn23)cc1 [Example 2-160]: 50 to 500 nM
O=C(NC1CC1)c1ccc(-c2cnc3c(NCc4ccoc4)cc(NC4CCCCC4)nn23)cc1 [Example 2-157]: 50 to 500 nM
O=C(NC1CC1)c1ccc(-c2cnc3c(NCC4CCOCC4)cc(N4CCCCS4(=O)=O)nn23)cc1 [Example 2-40]: 50 to 500 nM
CC(C)CNc1nc(-c2ccccc2N)cn2c(-c3ccc(C(=O)NC4CC4)cc3)cnc12 [Example 1-123]: 50 to 500 nM
O=C(NC1CC1)c1ccc(-c2cnc3c(NCC4CCOCC4)cc(N4CCOC(CO)C4)nn23)cc1 (stereo not drawn) [Example 2-49]: 500 to 1000 nM
O=C(NC1CC1)c1ccc(-c2cnc3c(NCC4CCOCC4)cc(Nc4ccccc4O)nn23)cc1 [Example 2-34]: 50 to 500 nM
O=C(NC1CC1)c1ccc(-c2cnc3c(NCC4CCOCC4)cc(Oc4ccc(Cl)cc4)nn23)cc1 [Example 2-93]: 50 to 500 nM

These data points were gathered from patent US20120059162A1.
